# credit: patent US10221163B2

Target: VIM-1 (Pseudomonas aeruginosa (strain ATCC 15692 / DSM 22644 / CIP 104116 / JCM 14847 / LMG 12228 / 1C / PRS 101 / PAO1), UniProt A0A0F7KYQ8)
Experiment: biochemical
Settings: fluorescence assay, CCF2-FA substrate, 30 pM enzyme, 2 hours at 25° C.; read-out: VIM-1 IC50
quantity_name: pIC50
Would you please state pIC50, meaning minus log10 of the concentration in mol/L, as a bare number?

Nc1ccc(-c2ccc(S(=O)(=O)NC3CNC3)c(S(N)(=O)=O)c2-c2nn[nH]n2)cn1    9.75
CN(C)CC(F)(F)CNS(=O)(=O)c1ccc(-c2cccc3sc(N)nc23)c(-c2nnn[nH]2)c1S(N)(=O)=O    9.34
NC[C@H](O)CNS(=O)(=O)c1ccc(-c2ccc3nccn3c2)c(-c2nn[nH]n2)c1S(N)(=O)=O    9.95
NS(=O)(=O)c1c(S(=O)(=O)N[C@@H]2CCNC2)ccc(-c2cccc3nc(O)[nH]c23)c1-c1nnn[nH]1    9.82
NCCNS(=O)(=O)c1ccc(-c2cccc3[nH]c(C(F)(F)CN)nc23)c(-c2nn[nH]n2)c1S(N)(=O)=O    9.94

Task: Requested field: pIC50. Item: CCC1(NS(=O)(=O)c2ccc(-c3cccc4sc(N)nc34)c(-c3nnn[nH]3)c2S(N)(=O)=O)CCNC1 (stereo not shown)
Result: 9.61

Task: Requested field: pIC50. Item: "NC[C@@H](O)CNS(=O)(=O)c1ccc(-c2ccc3nccn3c2)c(-c2nn[nH]n2)c1S(N)(=O)=O"
Result: 9.90

Task: Requested field: pIC50. Item: "NCC(CN)NS(=O)(=O)c1ccc(-c2ccc(N)nc2)c(-c2nn[nH]n2)c1S(N)(=O)=O"
Result: 9.53

Task: Requested field: pIC50. Item: "NS(=O)(=O)c1ccc(-c2cccc3[nH]c(C(=O)O)nc23)c(-c2nn[nH]n2)c1S(N)(=O)=O"
Result: 9.54

Task: Requested field: pIC50. Item: "CS(=O)(=O)Nc1nc2c(-c3ccc(S(=O)(=O)N4CCNCC4)c(S(N)(=O)=O)c3-c3nn[nH]n3)cccc2s1"
Result: 8.76
